Origin of the recorded values: patent US20250346644A1

MEASUREMENT_TARGET: T1, hIL2-DM-his (human, UniProt P60568 21-153)
T1 construct: expressed in ExpiCHO-S cells, nickel-column purified; also called hIL-2 mutein containing two point mutations K64G and N90R (with a his-tag); not shown: his-tag
T1 sequence (P60568 21-153 K84G/N110R): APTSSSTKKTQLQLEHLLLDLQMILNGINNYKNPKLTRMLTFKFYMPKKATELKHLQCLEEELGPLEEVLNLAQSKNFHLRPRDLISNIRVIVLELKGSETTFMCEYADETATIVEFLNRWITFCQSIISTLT
ASSAY_OVERVIEW: BLI ForteBio, Ab on Protein A sensor

- BINDER: "K4G5 (antibody, V domains shown) VH: QVQLVQSGAEVKKPGATVKISCKVSGDTITAYYMHWVRQAPGQGLEWIGRIDPEDDSTKYAENFKGRVTITADTSTDTAYMELSSLRSEDTAVYYCTTVTFYYTRELRWFAYWGQGTLVTVSS VL: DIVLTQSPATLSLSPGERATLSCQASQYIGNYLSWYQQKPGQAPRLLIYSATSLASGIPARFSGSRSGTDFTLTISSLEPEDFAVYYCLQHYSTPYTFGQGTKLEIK"
  koff, s⁻¹: 0.00113
- BINDER: "K1G11 (antibody, V domains shown) VH: QVQLVQSGAEVKKPGATVKISCKVSGDTITAYYMHWVRQAPGQGLEWIGRIDPDDDSTKYAENFKGRVTITADTSTDTAYMELSSLRSEDTAVYYCTTITFLYSRELRWFAYWGQGTLVTVSS VL: DIVLTQSPATLSLSPGERATLSCQASQYISNYLSWYQQKPGQAPRLLIYQATSLASGIPARFSGSRSGTDFTLTISSLEPEDFAVYYCLQHYSTPYTFGQGTKLEIK"
  koff, s⁻¹: 0.000373
- BINDER: "K2G7 (antibody, V domains shown) VH: QVQLVQSGAEVKKPGATVKISCKVSGDTITAYYMHWVRQAPGQGLEWIGRIDPEDDSTKYAENFKGRVTITADTSTDTAYMELSSLRSEDTAVYYCTTITFYYTRELRWFAYWGQGTLVTVSS VL: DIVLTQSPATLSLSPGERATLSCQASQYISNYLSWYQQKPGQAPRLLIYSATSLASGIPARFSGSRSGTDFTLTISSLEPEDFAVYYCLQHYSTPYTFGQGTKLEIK"
  koff, s⁻¹: 0.000489
